# System: Swiss CD-1 female mice
# Protocol Description: Nephrotoxicity study, histopathological scoring of kidney lesions
# Assay type: in vivo
# Set-up: key: sum of 0-4 lesion parameter scores; higher = more nephrotoxic
# Assay Setup: Table 6; sum over all mice; 12 mg/Kg every 2 hours × 6, subcutaneous, total 72 mg/Kg
Numbered stars: 1 amine (or outer) side, 2 acyl side, 3 side chain; on linkers, the order of the positions; unused ones are H or OH. Bridge positions count the residues as written; N and C are the ends. Square brackets hold non-standard residues; d marks the D form. Peptide text beside a SMILES is read from it. * marks the point of attachment. X1 = C[C@@H](O)[C@@H](CS[*:1])N[*:2]; Hica(2S) = CC(C)C[C@H](O)C(=O)O; Octanoyl = CCCCCCCC(=O)*; Dab = NCC[C@H](N)C(=O)O
Measurement Name: Animal Score (AS), Partial AS
Number only, please.

Hi! What's the reported Animal Score (AS), Partial AS for CCCCCCCC(=O)N[C@@H](CCN)C(=O)N[C@H](C(=O)N[C@@H](CCN)C(=O)N[C@H]1CSSC[C@H]([C@@H](C)O)NC(=O)[C@H](CCN)NC(=O)[C@H](CCN)NC(=O)[C@H](CC(C)C)OC(=O)[C@@H](Cc2ccccc2)NC(=O)[C@H](CCN)NC1=O)[C@@H](C)O [Example 9] (Octanoyl-[Dab]T[Dab]C[Dab][dF][Hica(2S)][Dab][Dab]; linker 4-C via X1) on Swiss CD-1 female mice?
0
